Provenance of the data: paper PMC12040169

Below is a list of entries, each paired with its recorded viability at 28.5 h, 10 µM value.
# EXPERIMENTAL PROTOCOL: in vitro
# CONDITION SUMMARY: human, hela cells, % viability
MEASUREMENT LABEL: viability at 28.5 h, 10 µM (%)

>>> measured_result("Cc1ccc(CN(CCCn2ccnc2)Cc2ccncc2)o1 [CBK283101]")
108
>>> measured_result("Cn1ccnc1C(NC(=O)N1CCCC1)c1ccc(F)c(F)c1 (centres unmarked) [CBK283782]")
89
>>> measured_result("Cc1cccc(-c2csc3c(=O)[nH]c(N4CCC(C(=O)NCCN5CCOCC5)CC4)nc23)c1 [CBK215640]")
105
>>> measured_result("CC(=O)Nc1ccc(CNC(=O)CN(C)Cc2cccc(O)c2)cc1 [CBK307660]")
84.8
>>> measured_result("CCN(Cc1ncc[nH]1)[C@H]1CCO[C@@H](c2ccccc2-c2ccc(OC)cc2)C1 [CBK285842]")
104

---

# EXPERIMENTAL PROTOCOL: in vitro
# CONDITION SUMMARY: human, hela cells, % viability
Below is a list of entries, each paired with its recorded viability at 28.5 h, 10 µM value.
MEASUREMENT LABEL: viability at 28.5 h, 10 µM (%)

>>> measured_result("CC(C)[C@@H](CO)Nc1nccnc1-c1ccc(CN)cc1")
104
>>> measured_result("O=C(Nc1ccccc1)N(O)CC(O)COc1ccccc1 (stereo not shown)")
90.7
>>> measured_result("O=C1N=C(NC2CCCCC2)SC1Cc1nc2ccccc2o1 (stereo not shown)")
96.4
>>> measured_result("O=C(c1ccccc1F)N1CCCC(c2n[nH]c3ncccc23)C1 (stereo not shown)")
101
>>> measured_result("O=C(NCc1ccco1)c1ccccc1NS(=O)(=O)c1ccc(Br)s1")
79.9
>>> measured_result("C=CCn1c(Cc2csc(NC(=O)Cc3ccc(Cl)cc3)n2)n[nH]c1=S")
96.3
>>> measured_result("O=C(NC1CCCCC1)C1CCC1")
96.5
>>> measured_result("COc1ccc(-c2c(C(F)(F)F)oc3cc(OC(=O)c4cccc(C)c4)ccc3c2=O)cc1OC")
99.3
>>> measured_result("Nc1nnc(SCCC(=O)N2CCN(c3ccc(F)cc3)CC2)s1")
84.7
>>> measured_result("Cc1nnnn1-c1cc(NC(=O)N(C)C(C)C)ccc1F")
93.2

---

# EXPERIMENTAL PROTOCOL: in vitro
# CONDITION SUMMARY: human, hela cells, % viability
MEASUREMENT LABEL: viability at 28.5 h, 10 µM

>>> measured_result("COc1ccc2cc(CNc3ccc(CCc4nc5ccccc5n4C)cc3)c(=O)[nH]c2c1 [CBK286159]")
"103%"
>>> measured_result("CC1(C(=O)O)CCC(C(=O)Nc2ccc(F)cc2)C1(C)C (stereo not shown) [CBK286953]")
"98.8%"
>>> measured_result("CC(C)C(=O)Nc1cc2ccccc2c(-c2cccc(C(F)(F)F)c2)n1 [CBK085738]")
"95.6%"
>>> measured_result("O=C(NCCc1nc2ccccc2[nH]1)c1cccc(Cl)c1 [CBK263514]")
"100%"
>>> measured_result("Cc1n[nH]nc1C(=O)N(C)CC(C)Oc1ccc(Cl)c(Cl)c1 (stereo not shown) [CBK306173]")
"85.2%"
>>> measured_result("CCn1cc(S(=O)(=O)N2CCC3(CC2)OCCO3)cn1 [CBK270321]")
"112%"
>>> measured_result("COC(=O)Nc1ccc(S(=O)(=O)N2CCCCC2C(=O)O)cc1 (stereo not shown) [CBK058086]")
"106%"
>>> measured_result("O=C(CN1C(=O)c2ccccc2C1=O)Nc1nc(-c2ccccc2)cs1 [CBK287343]")
"106%"
>>> measured_result("Nn1c(SCc2ccc(Br)cc2)nnc1-c1ccccn1 [CBK267552]")
"89.5%"
>>> measured_result("CN(C)CCNC(=O)c1cccc(-c2cc(N3CCCN(C)CC3)n3nccc3n2)c1 [CBK037143]")
"86.2%"
>>> measured_result("Cc1cc(Cl)c(S(=O)(=O)N2CCN(c3ccc(F)cc3)CC2)cc1OCC(N)=O [CBK266439]")
"98.3%"
>>> measured_result("OC(CNc1nccnc1-c1ccsc1)COc1ccccc1 (stereo not shown) [CBK037057]")
"96.3%"
>>> measured_result("CC(=O)c1ccc(-c2nccnc2N2CCN(c3ccncc3)CC2)s1 [CBK037015]")
"95.8%"
>>> measured_result("CCOC(=O)c1sc2nc(C)cc(C)c2c1N [CBK097355]")
"82.9%"
>>> measured_result("CC(C)(C)c1ccc(C(=O)N2CC[C@H]3NC(=O)N(Cc4ccccc4)C(=O)[C@H]32)cc1 [CBK289294]")
"86%"
>>> measured_result("C[C@@H]1CN(C(=O)OCCn2cccc2)C[C@H](C)O1 [CBK200123]")
"82.2%"
>>> measured_result("Cc1ccc(C)c2c1c1nc3ccccc3nc1n2Cc1nnc(-c2ccccc2)o1 [CBK268677]")
"104%"
>>> measured_result("CSCCCNC(=O)N(CCc1ccccc1)Cc1ccccc1 [CBK155317]")
"87.2%"
>>> measured_result("CN(C)C(=O)NCCNC(=O)c1c[nH]nc1-c1cc2ccccc2o1 [CBK306157]")
"85.7%"

---

# EXPERIMENTAL PROTOCOL: in vitro
# CONDITION SUMMARY: human, hela cells, % viability
MEASUREMENT LABEL: viability at 28.5 h, 10 µM (%)

>>> measured_result("O=C(c1ccco1)N1CCC(Cn2cncn2)(C2CCCCC2)CC1")
87.2
>>> measured_result("CN(CCCn1c(=S)[nH]c2ccccc2c1=O)C1CCCCC1")
103
>>> measured_result("CC(C)(C)c1ccc(-c2cc3ncccc3nc2N)cc1")
80.4
>>> measured_result("CCOC(=O)c1cn(CC)c2cc(N3CCCC3)c(F)cc2c1=O")
101
>>> measured_result("COc1ccc(NC(=O)CSc2nnc(C3CC3)n2C)c(OC)c1")
81.9
>>> measured_result("Cc1cccc2c3c([nH]c12)C1(CCCN(CCc2ccc([N+](=O)[O-])cc2)C1)NCC3 (stereo not drawn)")
92.4
>>> measured_result("NC(=S)N1N=C(c2ccccc2)CC1c1ccccc1 (stereo not drawn)")
95.6
>>> measured_result("COc1ccc(OC(=O)N2CCC(n3c(=O)[nH]c4ccccc43)CC2)cc1")
102
>>> measured_result("Cc1cc(C)nc(SCc2nc(N)nc(-c3ccccc3O)n2)n1")
94.4

---

# EXPERIMENTAL PROTOCOL: in vitro
# CONDITION SUMMARY: human, hela cells, % viability
Below is a list of entries, each paired with its recorded viability at 28.5 h, 10 µM value.
MEASUREMENT LABEL: viability at 28.5 h, 10 µM (%)

>>> measured_result("O=C(NC1CCN(c2nc3cccnc3s2)CC1)c1ccsc1 [CBK304342]")
93
>>> measured_result("CC(C)(C)c1ccc(C(=O)N2CCC3(CC2)CC(=O)N(Cc2ccc(S(C)(=O)=O)cc2)C3=O)cc1 [CBK155018]")
106
>>> measured_result("CCN1CCN(C(=O)c2cccc3[nH]ccc23)CC1 [CBK200246]")
110
>>> measured_result("COc1cc(C)ccc1S(=O)(=O)n1cnc2cc(C)c(C)cc21 [CBK287580]")
61.3
>>> measured_result("S=c1nccc(N2CCC(Cc3ccccc3)CC2)[nH]1 [CBK288361]")
112
>>> measured_result("Cn1cnc([N+](=O)[O-])c1Sc1cccs1 [CBK002620]")
90.6
>>> measured_result("CCC(CC)Cn1c(-c2cccnc2)nc2cc(S(=O)(=O)NCCO)ccc21 [CBK003450]")
91
>>> measured_result("CCCC(=O)N(C)C1CCC2(CC1)CNC(=O)c1cc(C)ccc1O2 (centres unmarked) [CBK281694]")
88.3
>>> measured_result("Cn1ccnc1C1(O)CC2CCC(C1)N2C(=O)Nc1ccc(F)cc1 (centres unmarked) [CBK284051]")
85.7
>>> measured_result("O=C(O)C(O)C(O)c1nc2ccccc2[nH]1 (centres unmarked) [CBK260955]")
107
>>> measured_result("O=C(Cn1c(=O)n(Cc2ccco2)c2ncccc21)N1CCCCC1 [CBK283862]")
89.2
>>> measured_result("Cc1cc(C)nc(Nc2ncc(O)n2-c2ccccc2)n1 [CBK287914]")
93.5
>>> measured_result("CCOC(=O)c1csc(C2CCCN2C(=O)CCc2ccccc2O)n1 (centres unmarked) [CBK305448]")
109
>>> measured_result("Cc1cc(C)cc(OCC(=O)Nc2ccc3[nH]c(=O)[nH]c3c2)c1 [CBK269676]")
99.5
>>> measured_result("Cc1c(Cl)c([N+](=O)[O-])nn1CCCC(=O)Nc1sc2c(c1C#N)CCC(C(C)(C)C)C2 (centres unmarked) [CBK269111]")
108
>>> measured_result("FC(F)(F)c1cccc(CSc2cc(N3CCCC3)ncn2)c1 [CBK107184]")
91.1
>>> measured_result("Clc1ccccc1CSc1nc[nH]n1 [CBK026950]")
98.5
>>> measured_result("COc1ccc(-c2ccc(N3CCN(CCN(C)C)CC3)nc2)cc1OC [CBK036818]")
98.2
>>> measured_result("C[C@@H](Nc1nc(-c2cccc(-c3ccccc3)c2)cnc1N)c1ccccc1 [CBK063704]")
96.3
>>> measured_result("NC(=O)c1ccc(NC(=O)COc2ccc3ccccc3c2)cc1 [CBK263738]")
101
